- MEASURED TARGET: T1, PDZD2_2, O15018
- T1 sequence (O15018 329-429, limits assumed, looked up): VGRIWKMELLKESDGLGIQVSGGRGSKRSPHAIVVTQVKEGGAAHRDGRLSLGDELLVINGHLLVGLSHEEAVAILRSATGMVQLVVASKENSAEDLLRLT
- METHOD NOTES: holdup assay
- Parameters: key: below the threshold = too weak to quantify, mostly under pKd 3.1 to 4
- SETUP CONDITIONS: plain residues with an end cap or a label only (N-terminal biotin on a linker: ahx)
# cutoff 4 applies to pKd; >= gives Yes, < gives No

Example entries and their recorded answers appear below.
BINDER: HNAFLSVTTV [PDZRN4, Q6ZMN7]
CLASS NAME: No

BINDER: RRRKRKRTYL [HPV49-L2, P36762]
CLASS NAME: No

BINDER: GYDWGPATDL [TJP3, O95049]
CLASS NAME: Yes

BINDER: TVICWPGSLV [LNX2, Q8N448]
CLASS NAME: Yes

IN: Hello, I need to know if LSDPSVSTVV [GRIN1, Q05586;Q05586-2] has measured pKd not below 4. Thanks!
OUT: Yes
